- method description: in vivo
- Parameters: species or system mice
- experimental parameters: C57, mouse, iv, 0.037 MBq, total radioactivity, Uptake ratio Tumor/liver
Positions of bridges follow the written chain, without caps; N, C: chain ends. Non-standard residues stand in square brackets, D forms with d. Residues, ends and D or L forms follow the SMILES beside them. *: point of attachment. NOTA = O=C(O)CN1CCN(CC(=O)O)CCN(CC(=O)*)CC1; Nle = CCCC[C@H](N)C(=O)O
readout: tissue to tissue ratio at 24 h
# answer = number (no unit)

Q: Which value of tissue to tissue ratio at 24 h has been reported for CCCC[C@H](NC(=O)CNC(=O)CNC(=O)CN1CCN(CC(=O)O)CCN(CC(=O)O)CC1)C(=O)N[C@H]1CC(=O)NCCCC[C@@H](C(N)=O)NC(=O)[C@H](Cc2c[nH]c3ccccc23)NC(=O)[C@H](CCCNC(=N)N)NC(=O)[C@@H](Cc2ccccc2)NC(=O)[C@H](Cc2c[nH]cn2)NC1=O [^67Cu-NOTA-GGNle-CycMSHhex, ^67Cu-NOTA-GlyGlyNle-CycMSHhex, metal not drawn] ({NOTA}-GG[Nle]DH[dF]RWK-NH2; lactam 4-9) in the records?
Ans: 6

* * *

- method description: in vivo
- Parameters: species or system mice
- experimental parameters: C57, mouse, iv, 0.037 MBq, total radioactivity, Skin uptake
Positions of bridges follow the written chain, without caps; N, C: chain ends. Non-standard residues stand in square brackets, D forms with d. Residues, ends and D or L forms follow the SMILES beside them. *: point of attachment. NOTA = O=C(O)CN1CCN(CC(=O)O)CCN(CC(=O)*)CC1; Nle = CCCC[C@H](N)C(=O)O
readout: tissue uptake at 24 h (%ID/g)
Report the value in %ID/g with no unit label.

Q: For the molecule shown here, CCCC[C@H](NC(=O)CNC(=O)CNC(=O)CN1CCN(CC(=O)O)CCN(CC(=O)O)CC1)C(=O)N[C@H]1CC(=O)NCCCC[C@@H](C(N)=O)NC(=O)[C@H](Cc2c[nH]c3ccccc23)NC(=O)[C@H](CCCNC(=N)N)NC(=O)[C@@H](Cc2ccccc2)NC(=O)[C@H](Cc2c[nH]cn2)NC1=O [^67Cu-NOTA-GGNle-CycMSHhex, ^67Cu-NOTA-GlyGlyNle-CycMSHhex, metal not drawn] ({NOTA}-GG[Nle]DH[dF]RWK-NH2; lactam 4-9) , give the reported tissue uptake at 24 h.
Ans: 0.02

* * *

- method description: in vivo
- Parameters: species or system mice
- experimental parameters: C57, mouse, iv, 0.037 MBq, total radioactivity, Uptake ratio Tumor/liver
Positions of bridges follow the written chain, without caps; N, C: chain ends. Non-standard residues stand in square brackets, D forms with d. Residues, ends and D or L forms follow the SMILES beside them. *: point of attachment. NOTA = O=C(O)CN1CCN(CC(=O)O)CCN(CC(=O)*)CC1; Nle = CCCC[C@H](N)C(=O)O
For each entry below, report its tissue to tissue ratio at 0.5 h value.
Lab note: write the figure by itself, no unit.

Q: Record request: tissue to tissue ratio at 0.5 h value, item CCCC[C@H](NC(=O)CNC(=O)CNC(=O)CN1CCN(CC(=O)O)CCN(CC(=O)O)CC1)C(=O)N[C@H]1CC(=O)NCCCC[C@@H](C(N)=O)NC(=O)[C@H](Cc2c[nH]c3ccccc23)NC(=O)[C@H](CCCNC(=N)N)NC(=O)[C@@H](Cc2ccccc2)NC(=O)[C@H](Cc2c[nH]cn2)NC1=O [^67Cu-NOTA-GGNle-CycMSHhex, ^67Cu-NOTA-GlyGlyNle-CycMSHhex, metal not drawn] ({NOTA}-GG[Nle]DH[dF]RWK-NH2; lactam 4-9)
Ans: 14.4

Q: Similarly, CCCC[C@H](NC(=O)COCCOCCNC(=O)CN1CCN(CC(=O)O)CCN(CC(=O)O)CC1)C(=O)N[C@H]1CC(=O)NCCCC[C@@H](C(N)=O)NC(=O)[C@H](Cc2c[nH]c3ccccc23)NC(=O)[C@H](CCCNC(=N)N)NC(=O)[C@@H](Cc2ccccc2)NC(=O)[C@H](Cc2c[nH]cn2)NC1=O [^67Cu-NOTA-PEG2Nle-CycMSHhex, metal not drawn] ?
Ans: 9.29

* * *

Exercise: for every item that follows, state its recorded tissue to tissue ratio at 4 h.
- method description: in vivo
- Design: species or system mice
- experimental parameters: C57, mouse, iv, 0.037 MBq, total radioactivity, Uptake ratio Tumor/muscle
Positions of bridges follow the written chain, without caps; N, C: chain ends. Non-standard residues stand in square brackets, D forms with d. Residues, ends and D or L forms follow the SMILES beside them. *: point of attachment. NOTA = O=C(O)CN1CCN(CC(=O)O)CCN(CC(=O)*)CC1; Nle = CCCC[C@H](N)C(=O)O
Reply: number alone, nothing else.

Q: Endpoint output: tissue to tissue ratio at 4 h of CCCC[C@H](NC(=O)COCCOCCNC(=O)CN1CCN(CC(=O)O)CCN(CC(=O)O)CC1)C(=O)N[C@H]1CC(=O)NCCCC[C@@H](C(N)=O)NC(=O)[C@H](Cc2c[nH]c3ccccc23)NC(=O)[C@H](CCCNC(=N)N)NC(=O)[C@@H](Cc2ccccc2)NC(=O)[C@H](Cc2c[nH]cn2)NC1=O [^67Cu-NOTA-PEG2Nle-CycMSHhex, metal not drawn] . Value?
Ans: 803

Q: Let us now turn to CCCC[C@H](NC(=O)CNC(=O)CNC(=O)CN1CCN(CC(=O)O)CCN(CC(=O)O)CC1)C(=O)N[C@H]1CC(=O)NCCCC[C@@H](C(N)=O)NC(=O)[C@H](Cc2c[nH]c3ccccc23)NC(=O)[C@H](CCCNC(=N)N)NC(=O)[C@@H](Cc2ccccc2)NC(=O)[C@H](Cc2c[nH]cn2)NC1=O [^67Cu-NOTA-GGNle-CycMSHhex, ^67Cu-NOTA-GlyGlyNle-CycMSHhex, metal not drawn] ({NOTA}-GG[Nle]DH[dF]RWK-NH2; lactam 4-9)
Ans: 879

* * *

- method description: in vivo
- Set-up: species or system mice
- experimental parameters: C57, mouse, iv, 0.037 MBq, total radioactivity, Brain uptake
readout: tissue uptake at 0.5 h (%ID/g)
Numeric only. Scale: %ID/g

Q: # lookup: tissue uptake at 0.5 h of CCCC[C@H](NC(=O)COCCOCCNC(=O)CN1CCN(CC(=O)O)CCN(CC(=O)O)CC1)C(=O)N[C@H]1CC(=O)NCCCC[C@@H](C(N)=O)NC(=O)[C@H](Cc2c[nH]c3ccccc23)NC(=O)[C@H](CCCNC(=N)N)NC(=O)[C@@H](Cc2ccccc2)NC(=O)[C@H](Cc2c[nH]cn2)NC1=O [^67Cu-NOTA-PEG2Nle-CycMSHhex, metal not drawn]
Ans: 0.04

* * *

- method description: in vivo
- Parameters: species or system mice
- experimental parameters: C57, mouse, iv, 0.037 MBq, total radioactivity, Pancreas uptake
- Method: All animal studies were conducted in compliance with Institutional Animal Care and Use Committee approval. C57 mice were purchased from Charles River Laboratory (Wilmington, NC). […] The tumor uptake specificity of ^67Cu-NOTA-PEG2Nle-CycMSHhex and ^67Cu-NOTA-GGNle-CycMSHhex was determined by co-injecting 10 μg (6.07 nmol) of unlabeled NDP-MSH. Mice were sacrificed at 0.5, 2, 4, and 24 h post-injection, and tumors and organs of interest were harvested, weighed, and counted. […]
Positions of bridges follow the written chain, without caps; N, C: chain ends. Non-standard residues stand in square brackets, D forms with d. Residues, ends and D or L forms follow the SMILES beside them. *: point of attachment. NOTA = O=C(O)CN1CCN(CC(=O)O)CCN(CC(=O)*)CC1; Nle = CCCC[C@H](N)C(=O)O
readout: tissue uptake at 2 h

Q: Given the entry CCCC[C@H](NC(=O)CNC(=O)CNC(=O)CN1CCN(CC(=O)O)CCN(CC(=O)O)CC1)C(=O)N[C@H]1CC(=O)NCCCC[C@@H](C(N)=O)NC(=O)[C@H](Cc2c[nH]c3ccccc23)NC(=O)[C@H](CCCNC(=N)N)NC(=O)[C@@H](Cc2ccccc2)NC(=O)[C@H](Cc2c[nH]cn2)NC1=O [^67Cu-NOTA-GGNle-CycMSHhex, ^67Cu-NOTA-GlyGlyNle-CycMSHhex, metal not drawn] ({NOTA}-GG[Nle]DH[dF]RWK-NH2; lactam 4-9) , report its measured tissue uptake at 2 h.
Ans: 0.12 %ID/g

* * *

- method description: in vivo
- Design: species or system mice
- experimental parameters: C57, mouse, iv, 0.037 MBq, total radioactivity, Bone uptake
Positions of bridges follow the written chain, without caps; N, C: chain ends. Non-standard residues stand in square brackets, D forms with d. Residues, ends and D or L forms follow the SMILES beside them. *: point of attachment. NOTA = O=C(O)CN1CCN(CC(=O)O)CCN(CC(=O)*)CC1; Nle = CCCC[C@H](N)C(=O)O
readout: tissue uptake at 4 h
Please state the value followed by its unit.

Q: Which measured tissue uptake at 4 h value corresponds to CCCC[C@H](NC(=O)CNC(=O)CNC(=O)CN1CCN(CC(=O)O)CCN(CC(=O)O)CC1)C(=O)N[C@H]1CC(=O)NCCCC[C@@H](C(N)=O)NC(=O)[C@H](Cc2c[nH]c3ccccc23)NC(=O)[C@H](CCCNC(=N)N)NC(=O)[C@@H](Cc2ccccc2)NC(=O)[C@H](Cc2c[nH]cn2)NC1=O [^67Cu-NOTA-GGNle-CycMSHhex, ^67Cu-NOTA-GlyGlyNle-CycMSHhex, metal not drawn] ({NOTA}-GG[Nle]DH[dF]RWK-NH2; lactam 4-9) ?
Ans: 0.06 %ID/g
